Taken from the supplement of paper PMC10567573.

- assay protocol: protein stability index of a GFP-peptide fusion (GPS, HEK-293T) (PSI 1-6); higher = more stable;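 further: 24-mer peptide tiles fused after GFP, lentivirally expressed, FACS-sorted into six equal bins by GFP/DsRed ratio, decoded by Illumina sequencing, PSI is the read-weighted mean bin number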
- conditions: treatment: DMSO; c terminus: a fixed tail appended
Overview of recorded protein stability index for various sequences
measured quantity: protein stability index

VEPVCSGLQAQILHCYRDRPHEVL [CHCHD6] :: 2.93
CEVIFCVFIFYYVVEEILELHIHR [PKD2L1] :: 3
PLVLSYIDLSAWCYYCQAYVHHQA [HDAC6] :: 2.97
SYLDKVRALEEANTELEVKIRDWY [KRT17] :: 2.97
RHMEAVKAQLLEQAQGQLRELLDR [SOAT2] :: 3.07
KAEPRLPDRVYIHPDSPATGAHWM [TBX6] :: 3.09
LASGPGKYMPHLCQDSSGEVSCQC :: 3.99
NVLKIAPESAIKFMAYEQIKRLVG [SLC25A25] :: 3.07
